Items are presented alongside their recorded Population Hoechst High Intensity Objects (%).
test system: Fibroblast; assay: Multiplex assay against human fibroblast; assay type: toxicity, cell-based; conditions: 12 h, 1 µM, compound concentration 1 uM, replicate 2
// unit must come after the numeric part

CC(C)NC(=O)N1CC[C@H](NC2=Nc3cc(F)ccc3N(CC(F)F)c3ccc(Cl)cc32)C1	9%

Query :: GET /values?readout=Population Hoechst High Intensity Objects (%)&item= Cl.O=C(O)c1cc(-c2ccc(C3CCNCC3)cc2)c2ccc(-c3ccc(C(F)(F)F)cc3)cc2c1
Result :: 5%

Query :: Tell me the measured Population Hoechst High Intensity Objects (%) of CC1=C(C(=O)Nc2cc3cn[nH]c3cc2F)C(c2ccc(C(F)(F)F)cc2)CC(=O)N1 (configuration not stated) , please.
Result :: 10%
